test target: HLA-B*58:01
experimental protocol: IEDB peptide-MHC binding, purified MHC/direct/fluorescence; filed as Kd, often an IC50 or EC50 that approximates it; bounds were set here for any values at or beyond the usual limits of such assays
condition summary: source organism: Salmonella enterica
observed property: Kd

Kd reported for this sequence `EHFYWGSVF` : ≥ 20 µM

----------
test target: HLA-B*15:01
experimental protocol: IEDB peptide-MHC binding, purified MHC/direct/fluorescence; filed as Kd, often an IC50 or EC50 that approximates it; bounds were set here for any values at or beyond the usual limits of such assays
condition summary: source organism: Giardia lamblia ATCC 50803
pKd: −log10 of the molar value.
observed property: pKd

Okay, here is my list. What is pKd for each of these?
1. MIYELCTFR
2. YQYGDNLIL

Response line:
["≤ 4.70", 7.05]

# map each sequence to its pKd
1. VYAYPSGEK
2. YTDDYPMYK

Response line:
1: ≤ 4.70; 2: ≤ 4.70

----------
test target: HLA-A*26:01
experimental protocol: IEDB peptide-MHC binding, purified MHC/competitive/fluorescence; filed as Kd, often an IC50 or EC50 that approximates it; bounds were set here for any values at or beyond the usual limits of such assays
condition summary: source organism: Human immunodeficiency virus 1
observed property: Kd (µM)
Numbers only, in µM.

Form: sequence = `GTEEIRSLY` ; Kd = 0.429

----------
test target: HLA-A*01:01
experimental protocol: IEDB peptide-MHC binding, purified MHC/competitive/fluorescence; filed as Kd, often an IC50 or EC50 that approximates it; bounds were set here for any values at or beyond the usual limits of such assays
condition summary: source organism: Influenza A virus (A/goose/Guangdong/1/1996(H5N1))
observed property: pKd
One number for each entry, as −log10 of the molar value.

get_value(item= `WVSFNQNLEY` , readout=pKd) returns 7.01

----------
test target: HLA-B*40:01
experimental protocol: IEDB peptide-MHC binding, purified MHC/competitive/fluorescence; filed as Kd, often an IC50 or EC50 that approximates it; bounds were set here for any values at or beyond the usual limits of such assays
condition summary: source organism: Shigella flexneri 5 str. 8401
observed property: pKd
One number for each entry, as −log10 of the molar value.

pKd measured on `TEAKIISLL` = 8.09

----------
test target: HLA-A*68:02
experimental protocol: IEDB peptide-MHC binding, purified MHC/direct/fluorescence; filed as Kd, often an IC50 or EC50 that approximates it; bounds were set here for any values at or beyond the usual limits of such assays
condition summary: source organism: Francisella tularensis subsp. holarctica LVS
observed property: Kd

Item: `EFKQILTDF` | Kd: ≥ 20 µM

----------
test target: HLA-A*02:06
experimental protocol: IEDB peptide-MHC binding, purified MHC/competitive/radioactivity; filed as Kd, often an IC50 or EC50 that approximates it; bounds were set here for any values at or beyond the usual limits of such assays
condition summary: source organism: SARS coronavirus Tor2
observed property: pKd
Answers are plain numbers, as −log10 of the molar value.

Reference set, count: 6
1. FLLVTLAIL	9.32
2. FLAFVVFLL	8.59
3. YIFFASFYYI	9.10
4. LMSFTILCLV	7.40
5. FICNLLLLFV	8.40
6. LMANLAPHLL	6.94

What the record says about `SQMETDFLEL` : pKd is 7.69

----------
test target: HLA-A*32:01
experimental protocol: IEDB peptide-MHC binding, purified MHC/competitive/radioactivity; filed as Kd, often an IC50 or EC50 that approximates it; bounds were set here for any values at or beyond the usual limits of such assays
condition summary: source organism: Dengue virus 4 Philippines/H241/1956
pKd: −log10 of the molar value.
observed property: pKd

1) ITFLRVLSI	7.00
2) IGFLVLWIGT	≤ 4.16
3) GVSGGAWVDL	≤ 4.16

Note: attention shifts to another entry.
Summary line: `ETRAETWMSS` , HLA-A*32:01, reported pKd = ≤ 4.33

----------
test target: HLA-A*02:01
experimental protocol: IEDB peptide-MHC binding, purified MHC/competitive/fluorescence; filed as Kd, often an IC50 or EC50 that approximates it; bounds were set here for any values at or beyond the usual limits of such assays
condition summary: source organism: Rickettsia akari str. Hartford
observed property: Kd

Input `FTARIIIFS` . Output Kd: ≥ 20 µM

----------
test target: HLA-B*57:01
experimental protocol: IEDB peptide-MHC binding, purified MHC/competitive/fluorescence; filed as Kd, often an IC50 or EC50 that approximates it; bounds were set here for any values at or beyond the usual limits of such assays
condition summary: source organism: Salmonella enterica subsp. enterica serovar Typhi
observed property: pKd
Numbers only, as −log10 of the molar value.

Per the reported HLA-B*57:01 data, `MSAIVSCRY` has pKd of 6.63

----------
For each record, write down the corresponding pKd.
test target: HLA-A*68:01
experimental protocol: IEDB peptide-MHC binding, purified MHC/competitive/radioactivity; filed as Kd, often an IC50 or EC50 that approximates it; bounds were set here for any values at or beyond the usual limits of such assays
condition summary: source organism: Mammarenavirus juninense
pKd: −log10 of the molar value.

Can you give me pKd for all of these, one by one?
1. MTSWLDFSH
2. PLLCTLNKSH
3. PAAEFRRVAH

Response line:
[8.47, "≤ 4.15", "≤ 4.15"]

----------
test target: HLA-A*26:01
experimental protocol: IEDB peptide-MHC binding, purified MHC/competitive/radioactivity; filed as Kd, often an IC50 or EC50 that approximates it; bounds were set here for any values at or beyond the usual limits of such assays
condition summary: source organism: Mammarenavirus machupoense
pKd: −log10 of the molar value.
observed property: pKd

The recorded pKd for `CGDPSSFEY` is ≤ 4.11

----------
test target: HLA-A*26:02
experimental protocol: IEDB peptide-MHC binding, purified MHC/competitive/fluorescence; filed as Kd, often an IC50 or EC50 that approximates it; bounds were set here for any values at or beyond the usual limits of such assays
condition summary: source organism: Human immunodeficiency virus 1
pKd: −log10 of the molar value.
observed property: pKd

Summary for this sequence, `LFNTIATLY` : pKd is ≤ 4.70

----------
test target: HLA-B*15:01
experimental protocol: IEDB peptide-MHC binding, purified MHC/competitive/fluorescence; bounds were set here for any values at or beyond the usual limits of such assays
condition summary: source organism: Zaire ebolavirus
The threshold is 20 µM. Values of IC50 beneath it are tagged rule met; values meeting or exceeding it are tagged rule not met.

Would you please look over these solved cases?
1) RQIQVHAEQ	rule not met
2) IMASENSSA	rule not met
3) AIALGVATA	rule not met

Prompt line: Lab note: IC50 threshold 20 µM. Does this sequence come in strictly under it? `QFLSFASLF`
Response line: rule met

Prompt line: Field: below-cutoff. Rule: recorded IC50 strictly less than 20 µM. Subject: `AGVNVGEQY`
Response line: rule not met

Prompt line: Given `SFKAALSSL` , is recorded IC50 strictly lower than 20 µM?
Response line: rule met

Prompt line: hey, is IC50 for `ILQKTERGV` lower than 20 µM or not?
Response line: rule not met

Prompt line: For this sequence, is IC50 lower than 20 µM? `LIHQGMHMV`
Response line: rule not met

Prompt line: Please let me know if `KVQRQIQVH` shows IC50 below 20 µM.
Response line: rule not met

----------
test target: HLA-A*31:01
experimental protocol: IEDB peptide-MHC binding, purified MHC/direct/fluorescence; filed as Kd, often an IC50 or EC50 that approximates it; bounds were set here for any values at or beyond the usual limits of such assays
condition summary: source organism: Rickettsia felis
observed property: Kd

# Kd of `GSFKEYVFW` = ≥ 20 µM

----------
test target: HLA-B*58:01
experimental protocol: IEDB peptide-MHC binding, purified MHC/direct/fluorescence; filed as Kd, often an IC50 or EC50 that approximates it; bounds were set here for any values at or beyond the usual limits of such assays
condition summary: source organism: Homo sapiens
observed property: Kd (nM)
Give bare numbers, in nM.

Summary line: `ISLICGHSY` , HLA-B*58:01, reported Kd = 22

----------
test target: HLA-A*33:01
experimental protocol: IEDB peptide-MHC binding, purified MHC/competitive/radioactivity; filed as Kd, often an IC50 or EC50 that approximates it; bounds were set here for any values at or beyond the usual limits of such assays
condition summary: source organism: Variola virus
observed property: Kd

Short answer for `AVFKNSFLGK` : Kd was ≥ 70 µM

----------
test target: HLA-B*35:01
experimental protocol: IEDB peptide-MHC binding, purified MHC/competitive/fluorescence; filed as Kd, often an IC50 or EC50 that approximates it; bounds were set here for any values at or beyond the usual limits of such assays
condition summary: source organism: Mycobacterium tuberculosis F11
observed property: Kd

The reported Kd value, HLA-B*35:01, for `FSIPVTFSY` reads ≤ 100 pM

Values from the Immune Epitope Database (IEDB)
